Target: UniProt:P97438
Sequence (P97438 whole entry): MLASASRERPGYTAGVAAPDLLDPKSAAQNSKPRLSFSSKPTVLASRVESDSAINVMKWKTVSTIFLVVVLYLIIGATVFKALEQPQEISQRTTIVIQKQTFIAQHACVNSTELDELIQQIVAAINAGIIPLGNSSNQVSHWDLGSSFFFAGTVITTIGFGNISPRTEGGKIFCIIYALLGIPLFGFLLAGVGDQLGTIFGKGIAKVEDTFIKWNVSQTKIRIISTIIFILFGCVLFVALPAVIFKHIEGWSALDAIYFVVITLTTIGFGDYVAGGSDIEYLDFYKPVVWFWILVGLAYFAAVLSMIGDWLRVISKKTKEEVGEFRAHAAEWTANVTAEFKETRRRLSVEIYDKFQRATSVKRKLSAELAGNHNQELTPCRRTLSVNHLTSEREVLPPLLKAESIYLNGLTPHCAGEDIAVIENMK
Test: Mouse manual patch clamp (MPC)
Assay type: cell-based
measure: IC50

compound="Cc1cc(C#Cc2ccc(F)cc2)cnc1NC(=O)c1cc(NC(=O)OC(C)(C)C)ccc1Cl [Compound 14c]" readout_value="67 nM"

meta.source: paper PMC12067145
